Data origin, for the record: patent US10940188B2

# Test system: ZIKV-induced cell death in human astrocytes
# protocol: ATP cell viability assay for ZIKV-induced cell death, human astrocytes
# Assay type: cell-based
# assay_setup: Homo sapiens, Astrocyte, read-out: Cell viability (IC50, uM) Astrocyte
attribute_measured: IC50 (µM)
Response body: numeric value in µM, unit text excluded.

Look up IC50 for this compound: COc1cccc2c1C(=O)c1c(O)c3c(c(O)c1C2=O)C[C@@](O)(C(=O)CO)C[C@@H]3O[C@H]1C[C@H](N2CCO[C@H](OC)C2)[C@H](O)[C@H](C)O1
0.87

* * *

# Test system: ZIKV MR766 NS1
# protocol: microbe, parasite or virus in culture
# Type: cell-based, Zika virus
# assay_setup: Zika virus, HEK293, 48 h, read-out: NS1-IC50
The following compounds are listed with their measured pIC50 values.
Reminder that pIC50 is minus the log10 of a molar concentration.

CC(=O)O[C@H]1C(=O)[C@@]2(C)[C@H]([C@H](OC(=O)c3ccccc3)[C@]3(O)C[C@H](OC(=O)[C@H](O)[C@@H](NC(=O)c4ccccc4)c4ccccc4)C(C)=C1C3(C)C)[C@]1(OC(C)=O)CO[C@@H]1C[C@@H]2O : 7.05
COc1cccc2c1C(=O)c1c(O)c3c(c(O)c1C2=O)C[C@@](O)(C(C)=O)C[C@@H]3O[C@H]1C[C@H](N)[C@H](O)[C@H](C)O1 : 6.27
C/C=C(/C)C(=O)O[C@H]1C(C)=C2[C@H]([C@@H]1OC(=O)CCCCCCC)[C@@](C)(OC(C)=O)C[C@H](OC(=O)CCC)[C@@]1(O)[C@H]2OC(=O)[C@@]1(C)O : 6.77

pIC50 lookup needed for CC(C)[C@]12O[C@H]1[C@@H]1O[C@]13[C@]1(O[C@H]1C[C@H]1C4=C(CC[C@@]13C)C(=O)OC4)[C@@H]2O [Triptolide] , thanks.
6.33

Next compound up: O=C1c2c(O)ccc(O)c2C(=O)c2c(NCCNCCO)ccc(NCCNCCO)c21
6.63
